- Tested on: MOLT-4 leukemia
- assay_explanation: NCI-60 one-dose screen, 48 h (100 = growth as untreated, 0 = no growth, -100 = all killed)
- condition_parameters: 10 µM unless noted
The panel holds about 83,000 compounds, 20% with a hit somewhere; the sample as a whole holds those more often.
Label true (1) when growth is strictly below 60%; at or above that, label false (0).

# check: growth < 60% for COC(=O)[C@@H](CCCCNC(=O)[C@]12CCC(C)(C)C[C@@H]1C1=CC[C@@H]3[C@@]4(C)C/C(=C/c5ccco5)C(=O)C(C)(C)[C@@H]4CC[C@@]3(C)[C@]1(C)CC2)NC(=O)[C@]12CCC(C)(C)C[C@@H]1C1=CC[C@@H]3[C@@]4(C)C/C(=C/c5ccco5)C(=O)C(C)(C)[C@@H]4CC[C@@]3(C)[C@]1(C)CC2
false (0)

Is 60% strictly greater than the compound's reported growth? compound: N#CC1=C(N)Oc2c(ccc3ccccc23)C1c1ccccc1 (configuration not stated)
true (1)

Input COc1ccc2cc1Oc1ccc(cc1)C[C@H]1c3c(cc4c(c3Oc3cc5c(cc3OC)CCN(C)[C@@H]5C2)OCO4)CCN1C ; condition: growth strictly below 60%. Does it hold?
true (1)

----------
- Tested on: OVCAR-5 ovarian
- assay_explanation: NCI-60 one-dose screen, 48 h
- condition_parameters: 10 µM unless noted
The panel holds about 83,000 compounds, 20% with a hit somewhere; the sample as a whole holds those more often. Active and inactive are the calls of the source. Rule for the calls: active = growth percent below 10; inactive = the rest.
Hi! Could you answer with just one of these? t for active, f for inactive

Study these solved cases before continuing.
- CN(/C(N)=N/N=C/c1c2ccccc2cc2ccccc12)C1CCCCC1: f
- CCCCNC(=O)Oc1ccc(/C(=C(/C)Cc2ccc(OC)cc2)c2ccc(OCCN3CCCC3)cc2)cc1: f
- O=C(CN1CCOCC1)Nc1nc(-c2cc3ccccc3oc2=O)cs1: f
- C#CCOc1ccc2ncnc(Nc3ccc(NC(=O)C=C)cc3)c2c1: f
- CC/C(=C(/c1ccc(Cl)cc1)c1ccc(OCCN2CCCCC2)cc1)c1ccc(OC)cc1: f
- O=C1/C(=C/c2cn(-c3ccccc3)nc2-c2ccccc2)SC(=S)N1C1CCCCC1: f

Query: recorded result category for COc1ccc(NC2=C(I)C(=O)c3ncccc3C2=O)cc1 in this test
t

Record request — test call for COc1ccc(\C=N/N=C(N)/C(N)=N\N=C/c2ccc(OC)cc2)cc1
f

Which outcome did this test record for the molecule Oc1ccc(Cl)cc1/C=N\NC(=S)N/N=C/c1cc(Cl)ccc1O ?
f

Answer briefly: the call reported for COc1ccc(/C=C(\C#N)n2nnc3cc(Cl)ccc32)cc1 in this assay.
t

----------
- System: SNB-19 CNS
- assay_explanation: NCI-60 one-dose screen, 48 h
- condition_parameters: 10 µM unless noted
About 83,000 compounds went through this panel and 20% of them were active in at least one assay; those are over-represented in the sample as a whole. Activity calls are given as the source filed them. How the source made its calls: active means growth percent below 10; inactive means the rest.
Respond with a class label; see Y (active), N (inactive)

Some solved entries appear below for comparison.
• Oc1c(I)cc(I)cc1CNCCN(Cc1ccccn1)Cc1ccccn1 = N
• COc1ccc(CNc2c3ccccc3nc3ccccc23)cc1 = N
• CC1=C2[C@@H](CC1)[C@]1(C)O[C@@](C(C)C)(C[C@H]1OC(=O)[C@H](C)O)[C@H]2OC(=O)/C=C/c1ccccc1 = N

Each compound tested received a call. Report the one for O=S(=O)(NCCCNc1nccc(-c2c(-c3ccc(F)c(O)c3)nc3sccn23)n1)c1ccccc1 .
N

Dear all, I need the recorded test outcome for O=C1Nc2ccc(C(=O)O)cc2/C1=N/c1nnc(Sc2ccccc2)s1 , thank you.
N

# credit: PubChem BioAssay (NCI)
